assay: Righting reflex experiment on mice; conditions: both, ICR, mouse, in vivo, iv
Recorded log10 LD50, one value per entry.
Field: value | Transform: log10 | Quantity: LD50 | Unit: mg/kg

# log10 LD50 (compound: "CC[C@@H](C)c1cccc([C@H](C)C2CC2)c1O" ) is 0.92

----------
test: Righting reflex experiment on mice; details: both, ICR, mouse, in vivo, iv
Rule for this label: Condition met means LD50 is less than 40 mg/kg; Condition not met means LD50 is at least 40 mg/kg.

Worked examples follow.
Compound	Class Name
CC(C)c1cccc([C@@H](C)C2CCC2)c1O	Condition not met
CC(C)c1cccc([C@H](C)C2CC2)c1O	Condition met
CC(C)c1cccc(C(C2CC2)C2CC2)c1O	Condition not met
C[C@@H](c1cccc([C@H](C)C2CC2)c1O)C1CC1 [Compound 18, 2,6-bis[(1R)-1-cyclopropylethyl]phenol]	Condition not met

Data request: Check if LD50 falls below 40 mg/kg for CC(C)c1cccc(C(C)C2CC2)c1O (stereo not drawn) .
Data returned: Condition met
